Biological target: T1, His-tagged P3028 (human, also: His tag, length and end not given here)
T1 construct: in solution at 0.5 ug/mL, detected with mouse anti-His antibody and rabbit anti-mouse peroxidase (rampo); also called PGE73; His-tag-P3028; not shown: His tag
T1 peptide: VFDEFKPLVEEPQNLIK
Assay: PEPSCAN ELISA, peptide on chip;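 further: binding detected by peroxidase ELISA with ABTS, OD405 colour imaged by CCD camera before and after staining, raw OD405 reported as rampo units, air-bubble wells scored 0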
Ends that are not written are not given here.
ASSAY METRIC: RAMPO Score (rampo units)
Answer with a number only, understood to be in rampo units.

Kindly note the recorded RAMPO Score for KKLDTFFVRLSLFTER [SEQ ID NO 331] , which is 374

The binder listed as HKLDTFFVKLSLFTER [SEQ ID NO 272] shows RAMPO Score equal to 428

Record summary for KKLVTFFVKLSLFTER [SEQ ID NO 301] : reported RAMPO Score = 424
